# INHIBITION per record follows
Tested on: Plasmodium berghei
Assay: Screen against P. berghei liver stage (PbLuc), transformed with Luciferase, at 2uM
Assay type: functional, HepG2
Conditions: tested at 2 uM
Screen size: about 68,000 compounds; about 2,700 (4%) showed an effect of 50% or more. The entries come from a sample that favours strong results as a whole.
Only the number, expressed in %, is required.

Look over these answered cases.
NC(=O)CCC1CCCN(c2ccnc3cc(F)ccc23)C1 (configuration not stated) ... 1.01
NC(=O)c1ccc(CNC(=O)Nc2cn[nH]c2)cc1 ... 26.06
COc1cc2c(nn1)CCN(Cc1noc(CC(C)C)n1)C2 ... 65.76
Cc1cc(CN2CCOC(CN(C)C)C2)no1 (configuration not stated) ... 16.64
Cc1cc(C)cc(OCC(=O)NC2CCN(S(C)(=O)=O)CC2)c1 ... -50.23

Input line: Request - read-out INHIBITION | tested on Plasmodium berghei | compound Cc1cc(C)n(C2CCCN(C(=O)c3cccc4[nH]ncc34)C2)n1 (configuration not stated)
Output line: -15.33

Input line: Request - read-out INHIBITION | tested on Plasmodium berghei | compound O=C(NCC1CCOC1)c1csc(-c2ccc(Cl)cc2)n1 (configuration not stated)
Output line: 5.09

Input line: Request - read-out INHIBITION | tested on Plasmodium berghei | compound CC(C)NC(=O)c1nc(Cn2c(C(F)F)nc3ccccc32)no1
Output line: 51.42

Input line: Request - read-out INHIBITION | tested on Plasmodium berghei | compound COc1ccc(-c2nc(C(=O)NCC3CCOC3)cs2)cc1OC (configuration not stated)
Output line: 60.09

Input line: Request - read-out INHIBITION | tested on Plasmodium berghei | compound CCCC(=O)N1CCOC2(COCCN(CC(=O)NC)C2)C1 (configuration not stated)
Output line: 43.03

Input line: Request - read-out INHIBITION | tested on Plasmodium berghei | compound COc1cc2c(nn1)CCN(Cc1noc(-c3ccccc3)n1)C2
Output line: 0.12

Input line: Request - read-out INHIBITION | tested on Plasmodium berghei | compound COc1cc2c(nn1)CCN(Cc1nc(Cc3ccccc3)no1)C2
Output line: 48.93
